Data provenance is PubChem BioAssay (NCI).

assay name: NCI Yeast Anticancer Drug Screen. Data for the mec2-1 strain (AID 157)
experimental context: S. cerevisiae mec2-1 strain, at 50.0 µM, hits give high values
This is part of a sample that, as a whole, favours compounds with a hit. Of some 79,000 tested, about 15% had one in any assay.
value type: growth inhibition (%)
Output spec: scalar in %, unitless text.

Examples with answers:
# compound, growth inhibition [%]
rows = [
    ("Cc1cc(OCc2ccc3ccccc3c2)ccc1Nc1cc(=O)[nH]c(=O)[nH]1", 33.6),
    ("Cc1ccc(N2C(=O)CNC2=O)cc1", -5),
    ("CSc1ccc(C(=C=C=C(c2ccc(SC)s2)c2ccc(SC)s2)c2ccc(SC)s2)s1", -19.8),
    ("CCCCCCCCCCCCCCCCCCCCCCCCC(O)C(=O)O (stereo not given) (tested in a mixture with another compound)", -31.4),
    ("C/C(COC(=O)c1cc(C)nc2ccccc12)=N\\O", 17),
]

QUERY: Which growth inhibition is listed for N/C=N/OCc1ccccc1 ?
RESULT: 5.05

* * *

// reported growth inhibition per item
assay name: NCI Yeast Anticancer Drug Screen. Data for the rad50 strain (AID 155);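 further: 0% = growth of vehicle-only cultures of the same strain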
experimental context: S. cerevisiae rad50 strain growth inhibition; at 50.0 µM; hits give high values
The panel holds about 79,000 compounds, 15% with a hit somewhere; the sample as a whole holds those more often.
Output spec: scalar in %, unitless text.

# compound, growth inhibition, %
rows = [
    ("CCOC(=O)/C(C#N)=C/NC(N)=O", -2.55),
]

QUERY: Which growth inhibition is listed for CCCCCCCCCSc1nc2ccccc2s1 ?
RESULT: 12.8

QUERY: Which growth inhibition is listed for COc1ccc(/C=C/C(=O)O)cc1OC ?
RESULT: -1.65

QUERY: Which growth inhibition is listed for CSC(=NCc1ccccc1)Nc1c(C)cccc1C ?
RESULT: 13.4

QUERY: Which growth inhibition is listed for CSc1nc(N)c(N)c(N)n1 ?
RESULT: 0.1

QUERY: Which growth inhibition is listed for NC(C(=O)O)c1ccc(C(=O)O)cc1 (centres undefined) ?
RESULT: 30.7

QUERY: Which growth inhibition is listed for CC(C)(C)OC(=O)c1ccc(NCc2cc(O)ccc2O)cc1 ?
RESULT: 87.4

QUERY: Which growth inhibition is listed for CCN1C(=O)C(=O)C(CC)(CC)C1=O ?
RESULT: -8.4

QUERY: Which growth inhibition is listed for CCc1cn(C2CC(CO)C(CO)S2)c(=O)[nH]c1=O (centres undefined) ?
RESULT: -5.5

QUERY: Which growth inhibition is listed for CC(C)(C)c1ccc(O)c(C(O)c2cccnc2)c1 (centres undefined) ?
RESULT: 18.7

QUERY: Which growth inhibition is listed for O=CC(O)C(O)C(O)C(O)COC(=S)OCC(O)C(O)C(O)C(O)C=O (centres undefined) (tested in a mixture with another compound) ?
RESULT: -4.35

QUERY: Which growth inhibition is listed for CC(=O)Oc1ccc(OC(C)=O)c2c(OC(C)=O)ccc(OC(C)=O)c12 ?
RESULT: 0.45

QUERY: Which growth inhibition is listed for O=C(CC(c1ccccc1)N1CCCCC1)OCC1CCCO1 (centres undefined) ?
RESULT: -0.85

QUERY: Which growth inhibition is listed for CC(C)OC(CCC#N)c1ccccc1 (centres undefined) ?
RESULT: -20.1

QUERY: Which growth inhibition is listed for Cc1ccc(NC(=O)Nc2ccc(C)cc2)cc1 ?
RESULT: 0.7

* * *

assay name: NCI Yeast Anticancer Drug Screen. Data for the mlh1 rad18 strain (AID 175)
experimental context: S. cerevisiae mlh1 rad18 strain growth inhibition; at 50.0 µM; hits give high values
About 79,000 compounds went through this panel and 15% of them were active in at least one assay; those are over-represented in the sample as a whole.
value type: growth inhibition (%)
Output spec: scalar in %, unitless text.

QUERY: Which growth inhibition is listed for CCC(=O)OCCSCCOC(=O)CC ?
RESULT: -15.8

* * *

assay name: NCI Yeast Anticancer Drug Screen. Data for the cln2 rad14 strain (AID 165);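 further: 0% = growth equal to vehicle treated cultures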
experimental context: S. cerevisiae cln2 rad14 strain, at 50.0 µM, hits give high values
Description: Growth inhibition of yeast strains with defined genetic alterations is measured as a screen for potential anti-cancer activity. Selected strains with alterations in DNA damage repair or cell cycle control were exposed to compounds and growth inhibition was measured relative to vehicle treated controls. The strain used in this assay is cln2 rad14
The panel holds about 79,000 compounds, 15% with a hit somewhere; the sample as a whole holds those more often.
value type: growth inhibition (%)
Output spec: scalar in %, unitless text.

Examples with answers:
# compound, reported
records = [
    ("CC(Cl)C(=O)N(C)c1ccccc1 (configuration not stated)", -16),
    ("CC(C)c1ccc(/C=C/C(=O)c2ccc(F)cc2)cc1", 10.1),
    ("CCCCNC(=O)c1ccccc1C", -34.9),
    ("CC(=O)c1cccc(NC(=O)Oc2ccc(C(=O)OCc3ccccc3)cc2)c1", 42.8),
]

QUERY: Which growth inhibition is listed for CC1CCCC2(C)CCC(=O)C=C12 (configuration not stated) ?
RESULT: -13.8

QUERY: Which growth inhibition is listed for CCNCc1ccccc1 ?
RESULT: -66.5

QUERY: Which growth inhibition is listed for CC(C)c1cccc(C(C)C)c1NC1=CC(=O)C(=O)c2ccccc21 ?
RESULT: -0.2

* * *

assay name: NCI Yeast Anticancer Drug Screen. Data for the cln2 rad14 strain (AID 165);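 further: 0% = growth equal to vehicle treated cultures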
experimental context: S. cerevisiae cln2 rad14 strain, at 50.0 µM, hits give high values
About 79,000 compounds went through this panel and 15% of them were active in at least one assay; those are over-represented in the sample as a whole.
value type: growth inhibition (%)
Output spec: scalar in %, unitless text.

Examples with answers:
# molecule, growth inhibition / %
measured = [
    ("C#CC(C)(C)CC", 19.8),
    ("CC(C)CC(O)CC(C)C", 28.4),
    ("CC1=C(C(=O)OCCc2ccc([N+](=O)[O-])cc2)C(c2cccc([N+](=O)[O-])c2)C(C(=O)OC(C)C)=C(C)N1 (stereo unspecified)", 0.45),
]

QUERY: Which growth inhibition is listed for Cc1cc(NS(=O)(=O)c2ccc(NC(=O)c3ccc(Cl)c4c(Nc5ccc(S(N)(=O)=O)cc5)c5ccccc5nc34)cc2)no1 ?
RESULT: 46.2

QUERY: Which growth inhibition is listed for COc1cc(/C=C/C(=O)Oc2ccccc2)ccc1C(=O)O/C=C/c1ccccc1 ?
RESULT: 21.4

QUERY: Which growth inhibition is listed for Cc1c(C(=O)OCCCl)c(=O)n(-c2ccccc2)n1C ?
RESULT: 19.6

QUERY: Which growth inhibition is listed for COc1ccc(C(=O)c2cc(S(=O)(=O)O)c(OC)cc2O)c(O)c1 ?
RESULT: -1.6

QUERY: Which growth inhibition is listed for CCC1(C#N)N=C(c2ccccc2)c2ccccc2N1C(=O)Oc1ccccc1 (stereo unspecified) ?
RESULT: -15.7

QUERY: Which growth inhibition is listed for CCOc1ccccc1NC(=O)Nc1cccc(C(F)(F)F)c1 ?
RESULT: 72.3

QUERY: Which growth inhibition is listed for COc1ccc(OC)c2cc(C3(C)SCCCS3)ccc12 ?
RESULT: 15.3

QUERY: Which growth inhibition is listed for N#CCC(=O)N1CCc2ccccc2C1 ?
RESULT: -79.7

* * *

assay name: NCI Yeast Anticancer Drug Screen. Data for the sgs1 mgt1 strain (AID 161);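 further: 0% = growth of cultures given vehicle only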
experimental context: S. cerevisiae sgs1 mgt1 strain, at 50.0 µM, hits give high values
About 79,000 compounds went through this panel and 15% of them were active in at least one assay; those are over-represented in the sample as a whole.
// reported growth inhibition per item
Output spec: scalar in %, unitless text.

# compound, reported
records = [
    ("CCC(=O)OC1CCCCC1C1CCCCC1 (centres undefined)", 8),
    ("CCc1ccc(OC(=O)CCl)cc1", -21.6),
    ("CCOC(=O)C12CCCC1(O)N(NC(=O)OC(C)(C)C)C(C)=C2C(=O)OC (centres undefined)", -2.6),
]

QUERY: Which growth inhibition is listed for N/C(=C\C(=O)c1ccccc1)C(=O)c1ccccc1 ?
RESULT: -15.5

QUERY: Which growth inhibition is listed for O=C1c2ccccc2CN1c1ccccc1 ?
RESULT: -3.25

* * *

assay name: NCI Yeast Anticancer Drug Screen. Data for the mlh1 rad18 strain (AID 175)
experimental context: S. cerevisiae mlh1 rad18 strain growth inhibition; at 50.0 µM; hits give high values
The panel holds about 79,000 compounds, 15% with a hit somewhere; the sample as a whole holds those more often. Activity calls are given as the source filed them. No stated cut-off is given here; in the data, active means growth inhibition above about 70%; inactive means the rest.
value type: growth inhibition

# smiles notation, value type, reported
measured = [
    ("CCn1c(C)nc([N+](=O)[O-])c1Sc1ncc[nH]1", "growth inhibition", "-3.35% (inactive)"),
]

QUERY: Which growth inhibition is listed for NCCCCCC(=O)O ?
RESULT: -8.4% (inactive)

QUERY: Which growth inhibition is listed for CC(=O)c1cc2ccccc2o1 ?
RESULT: 4.6% (inactive)

QUERY: Which growth inhibition is listed for COc1ccc(/C(Cl)=C(\CN(C)C)c2ccc(OC)c(OC)c2)cc1OC ?
RESULT: 24.1% (inactive)

QUERY: Which growth inhibition is listed for O=C(c1ccccc1)C(c1ccccc1)(c1ccccc1)c1ccccc1 ?
RESULT: 24.1% (inactive)
